Test system: RAW-Dual (murine macrophage reporter line)
Assay: IRF reporter (Lucia luciferase) activity fold change vs agonist alone; higher = enhanced IRF activity
Details: modulator concentration 10 µM; agonist: 3'3'-cGAMP 10 ug/mL
Label label 1 when IRF reporter is at or above 1; anything below gets label 0.

>>> df
                    structure_smiles_string  assigned_class
0  Cl.O=C1Cc2cc(CCN3CCN(c4nsc5ccccc45)CC3)c(Cl)cc2N1         label 0
1        COc1ccccc1OCC(=O)NCC1CCN(C(C)C)CC1         label 1
2  Cn1cc(CC(=O)NC2CCN(c3cc(C(F)(F)F)ncn3)CC2)c2ccccc21         label 0
3                         COc1c(O)cc(O)cc1O         label 1
4  COc1cccc(S(=O)(=O)NCc2sc(-c3ccccc3)nc2C)c1         label 0

FYI, the data here is from the supplement of paper PMC10646978.
